Catalogue of LC retention time values
# assay_overview: HILIC, Merck SeQuant ZIC-HILIC, 100 × 2.1 mm, 3.5 µm, 25 °C, 0.3 mL/min, estimated dead time 0.73 min; A: water + 0.1% formic acid, pH 3; B: acetonitrile + 0.1% formic acid, pH 3; gradient (min/%B) 0/95 1.5/95 13.5/40 15.5/40 29.7/25 33.5/25 34.5/95 41.5/95
# reported_conditions: stereoisomer not certain
observation_type: LC retention time (min)

{"molecule": "CC(=O)NC1C(O)CC(O)(C(=O)O)OC1C(O)C(O)CO (stereo not drawn) [N-Acetylneuraminic acid]", "value_measured": 7.06}
{"molecule": "CC(N)C(=O)O (stereo not drawn) [Alanine]", "value_measured": 8.06}
{"molecule": "NCC(=O)CCC(=O)O [5-aminolevulinic acid]", "value_measured": 8.57}
{"molecule": "CC1(C)SC2C(NC(=O)C(N)c3ccc(O)cc3)C(=O)N2C1C(=O)O (stereo not drawn) [Amoxicillin]", "value_measured": 6.82}
{"molecule": "CN(C)C(=N)N=C(N)N [Metformin]", "value_measured": 8.84}
{"molecule": "C=C(OP(=O)(O)O)C(=O)[O-] [Phosphoenol pyruvate]", "value_measured": 6.22}
{"molecule": "NC(C(=O)O)c1ccccc1 (stereo not drawn) [Phenylglycine]", "value_measured": 6.41}
{"molecule": "NCCc1c[nH]c2ccccc12 [Tryptamine]", "value_measured": 6.1}

====

# assay_overview: HILIC, Merck SeQuant ZIC-HILIC, 100 × 2.1 mm, 3.5 µm, 25 °C, 0.3 mL/min, estimated dead time 0.73 min; A: water + 0.1% formic acid, pH 3; B: acetonitrile + 0.1% formic acid, pH 3; gradient (min/%B) 0/95 1.5/95 13.5/40 15.5/40 29.7/25 33.5/25 34.5/95 41.5/95
# reported_conditions: stereoisomer not certain
Catalogue of LC retention time values
observation_type: LC retention time (min)

{"compound": "O=C(NCC(=O)N1CCCC1C(=O)O)C1CCCN1 (stereo unspecified) [Proline-glycine-proline]", "observation_type": "LC retention time", "value_measured": 7.66}
{"compound": "CN1CCCN=C1C=Cc1cccs1 [Pyrantel]", "observation_type": "LC retention time", "value_measured": 2.3}
{"compound": "CS(=O)CCC(N)C(=O)O (stereo unspecified) [Methionine sulfoxide]", "observation_type": "LC retention time", "value_measured": 8.59}
{"compound": "CN1CCC[C@H]1C(=O)O [N-Methyl-L-proline]", "observation_type": "LC retention time", "value_measured": 7.26}
{"compound": "O=c1ccn(C2OC(COP(=O)(O)O)C(O)C2O)c(=O)[nH]1 (stereo unspecified) [Uridine mono-phosphate]", "observation_type": "LC retention time", "value_measured": 6.99}
{"compound": "CCCC(C(=O)[O-])[N+](C)(C)C (stereo unspecified) [Norvaline betaine]", "observation_type": "LC retention time", "value_measured": 6.15}
{"compound": "Cc1ncc(CO)c(CN)c1O [Pyridoxamine]", "observation_type": "LC retention time", "value_measured": 13.1}
{"compound": "COC(=O)c1cccnc1 [Methyl nicotinic acid]", "observation_type": "LC retention time", "value_measured": 1.16}
{"compound": "Nc1ccc(O)cc1 [4-Aminophenol]", "observation_type": "LC retention time", "value_measured": 8.1}
{"compound": "NC(Cc1ccc(O)c(O)c1)C(=O)O (stereo unspecified) [3,4-dihydroxyphenylalanine]", "observation_type": "LC retention time", "value_measured": 8.17}
{"compound": "O=C(O)CNC(=O)C1CCCN1 (stereo unspecified) [Proline-glycine]", "observation_type": "LC retention time", "value_measured": 7.71}
{"compound": "Nc1cccc(C(=O)O)c1 [m-Aminobenzoic acid]", "observation_type": "LC retention time", "value_measured": 2.09}
{"compound": "CC(O)CN (stereo unspecified) [1-amino-2-propanol]", "observation_type": "LC retention time", "value_measured": 8.65}
{"compound": "OCC(O)C(O)C(O)C(O)CO (stereo unspecified) [Mannitol]", "observation_type": "LC retention time", "value_measured": 6.57}
{"compound": "CC(O)C(=O)C1=Nc2c(nc(N)[nH]c2=O)NC1 (stereo unspecified) [Sepiapterin]", "observation_type": "LC retention time", "value_measured": 4.63}
{"compound": "NC(N)=NCCCC(=O)O [4-Guanidinobutanoic acid]", "observation_type": "LC retention time", "value_measured": 7.51}
{"compound": "OCCNCCO [Diethanolamine]", "observation_type": "LC retention time", "value_measured": 8.22}
{"compound": "NCC(O)c1ccc(O)cc1 (stereo unspecified) [Octopamine]", "observation_type": "LC retention time", "value_measured": 7.57}
{"compound": "CC(=O)NCCCC[C@H]([NH3+])C(=O)[O-] [N6-Acetyl-L-lysine]", "observation_type": "LC retention time", "value_measured": 7.59}
{"compound": "CNCC(O)c1ccc(O)c(OC)c1 (stereo unspecified) [Metanephrine]", "observation_type": "LC retention time", "value_measured": 7.06}
{"compound": "CNCCc1cnc[nH]1 [Na-methylhistamine]", "observation_type": "LC retention time", "value_measured": 15.2}
